Sourced from ChEMBL document CHEMBL3137667

Parameter: Hepatotoxicity (cytolytic). Scope: all listed entries.
MEASUREMENT PARAMETERS: human, Liver;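 also: human cytolytic liver injury, shown by histopathology or by a ratio above 5 of peak ALT or AST elevation to alkaline phosphatase elevation, value counts indexed references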
QUANTITY MEASURED: Hepatotoxicity (cytolytic)

{"MOLECULE": "Cn1cnc([N+](=O)[O-])c1Sc1ncnc2nc[nH]c12 [AZATHIOPRINE]", "RECORDED RESULT": 19}
{"MOLECULE": "CC(C)(C)NC(=O)[C@@H]1C[C@@H]2CCCC[C@@H]2CN1C[C@@H](O)[C@H](Cc1ccccc1)NC(=O)[C@H](CC(N)=O)NC(=O)c1ccc2ccccc2n1", "RECORDED RESULT": 10}
{"MOLECULE": "Clc1ccc(C(Cn2ccnc2)OCc2ccsc2Cl)c(Cl)c1 (centres undefined) [TIOCONAZOLE]", "RECORDED RESULT": 0}
{"MOLECULE": "COc1ccc2c3c1O[C@H]1[C@@H](O)C=C[C@H]4[C@@H](C2)N(C)CC[C@@]341 [CODEINE]", "RECORDED RESULT": 2}
{"MOLECULE": "Nc1ccc(S(=O)(=O)Nc2nccs2)cc1 [SULFATHIAZOLE]", "RECORDED RESULT": 0}
{"MOLECULE": "O=C(O)c1ccccc1O.O=C(O)c1ccccc1O.O=C(O)c1ccccc1O", "RECORDED RESULT": 1}
{"MOLECULE": "Cc1ccc(C(=O)c2cc(O)c(O)c([N+](=O)[O-])c2)cc1 [TOLCAPONE]", "RECORDED RESULT": 6}
{"MOLECULE": "Oc1ncc(N(CCCl)CCCl)c(O)n1 [URACIL MUSTARD]", "RECORDED RESULT": 1}
{"MOLECULE": "COc1cc(Cc2cnc(N)nc2N)cc(OC)c1OC [TRIMETHOPRIM]", "RECORDED RESULT": 2}
